Compiled notes: published IC50 values involving UniProt O14672.

query.smiles: CS(=O)(=O)N1CCN(S(=O)(=O)c2cc(F)c(Oc3ccc(Cl)cc3)c(F)c2)[C@@H](C(=O)NO)C1
assay.readout: IC50
result: < 50 nM

query.smiles: O=C(NO)[C@H]1CN(S(=O)(=O)c2cccnc2O)CCN1S(=O)(=O)c1cc(F)c(Oc2ccc(Cl)cc2)c(F)c1
assay.readout: IC50
result: < 50 nM

query.smiles: Cc1cc(COc2ccc(S(=O)(=O)NC[C@@H](C(=O)NO)N3CCN(Cc4ccc(C(F)(F)F)cc4)CC3)cc2)c2ccccc2n1
assay.readout: IC50
result: > 10000 nM

query.smiles: CCCC(CCC)C(=O)N1CCN(S(=O)(=O)c2cc(F)c(Oc3ccc(Cl)cc3)c(F)c2)[C@@H](C(=O)NO)C1
assay.readout: IC50
result: < 50 nM

query.smiles: CNC(=O)CN1CCN(S(=O)(=O)c2cc(F)c(Oc3ccc(Cl)cc3)c(F)c2)[C@@H](C(=O)NO)C1
assay.readout: IC50
result: < 50 nM

query.smiles: O=C(NO)[C@H]1CN(S(=O)(=O)CCN2CCOCC2)CCN1S(=O)(=O)c1cc(F)c(Oc2ccc(Cl)cc2)c(F)c1
assay.readout: IC50
result: 50 to 1000 nM

Attention now shifts to the item below.
Find the measured IC50 of "O=C(NO)[C@H]1CN(S(=O)(=O)Cc2cc(Cl)cc(Cl)c2)CCN1S(=O)(=O)c1cc(F)c(Oc2ccc(Cl)cc2)c(F)c1" with UniProt O14672 as test system.
50 to 1000 nM

----------
pIC50: −log10 of the molar value.
Compiled notes: published pIC50 values involving UniProtKB O14672.

Example entries and their recorded answers appear below.
compound: O=C(NO)C(NS(=O)(=O)c1ccc(Oc2ccc(F)cc2)cc1)C1CCNCC1 (stereo not shown)
system.under.test: UniProtKB O14672
result: > 7.30
//
compound: O=C(NO)[C@H]1CN(C(=O)C(=O)N2CCCCC2)CCN1S(=O)(=O)c1cc(F)c(Oc2ccc(Cl)cc2)c(F)c1
system.under.test: UniProtKB O14672
result: > 7.30
//
compound: COCCOC(=O)N1CCN(S(=O)(=O)c2ccc(Oc3ccc(C#N)cc3)c(F)c2)[C@@H](C(=O)NO)C1
system.under.test: UniProtKB O14672
result: > 7.30

Find the measured pIC50 of "O=C(NO)[C@H]1CN(C(=O)N2CCOCC2)CCN1S(=O)(=O)c1ccc(Oc2ccc(F)cc2)cc1" with UniProtKB O14672 as test system.
> 7.30

Find the measured pIC50 of "O=C(NO)[C@H]1CN(C(=O)N2CCOCC2)CCN1S(=O)(=O)c1ccc(Oc2ccc(Cl)cc2)c(F)c1" with UniProtKB O14672 as test system.
> 7.30

Find the measured pIC50 of NCC1CCC(C[C@H](NS(=O)(=O)c2ccc(-c3cccc(F)c3)nc2)C(=O)NO)CC1 (stereo partly shown) with UniProtKB O14672 as test system.
> 7.30

Find the measured pIC50 of "CC(C)(C)OC(=O)N1CCN(S(=O)(=O)c2cc(F)c(Oc3ccc(F)cc3)c(F)c2)[C@@H](C(=O)NO)C1" with UniProtKB O14672 as test system.
> 7.30

----------
Compiled notes: published IC50 values involving ADAM-10 (UniProt O14672).

query.smiles: O=C(NO)[C@H]1CN(S(=O)(=O)c2cc(F)c(O)c(F)c2)CCN1S(=O)(=O)c1cc(F)c(Oc2ccc(Cl)cc2)c(F)c1
assay.readout: IC50
result: < 50 nM
--
query.smiles: COCCOC(=O)N1CCN(S(=O)(=O)c2ccc(Oc3ccc(Cl)cc3)c(F)c2)[C@@H](C(=O)NO)C1
assay.readout: IC50
result: < 50 nM
--
query.smiles: N=C(N)NCCC[C@@H](NS(=O)(=O)c1ccc(Oc2ccc(F)cc2)nc1)C(=O)NO
assay.readout: IC50
result: < 50 nM
--
query.smiles: O=C(NO)[C@H]1CN(C(=O)CN2CCCCC2)CCN1S(=O)(=O)c1cc(F)c(Oc2ccc(Cl)cc2)c(F)c1
assay.readout: IC50
result: < 50 nM

Output measured IC50 for this item: "O=C(NO)[C@H]1CN(C(=O)Cc2ccncc2)CCN1S(=O)(=O)c1cc(F)c(Oc2ccc(Cl)cc2)c(F)c1"
< 50 nM

----------
Compiled notes: published IC50 values involving ADAM-10 (UniProt O14672).

Example entries and their recorded answers appear below.
query.smiles: CCN1CCN([C@@H](CNS(=O)(=O)c2ccc(OCc3cc(C)nc4ccccc34)cc2)C(=O)NO)CC1
IC50: > 10000 nM
//
query.smiles: O=C(NO)[C@H]1CN(C(=O)OCc2ccccc2)CCN1S(=O)(=O)c1cc(F)c(Oc2ccc(Cl)cc2)c(F)c1
IC50: < 50 nM
//
query.smiles: CCOC(=O)N1CCN(S(=O)(=O)c2cc(F)c(Oc3ccc(F)cc3)c(F)c2)[C@@H](C(=O)NO)C1
IC50: < 50 nM
//
query.smiles: O=C(NO)[C@H]1CNCCN1S(=O)(=O)c1cc(F)c(Oc2ccc(F)cc2)c(F)c1
IC50: 50 to 1000 nM
//
query.smiles: CN(C)c1cccc2c(S(=O)(=O)N3CCN(S(=O)(=O)c4cc(F)c(Oc5ccc(Cl)cc5)c(F)c4)[C@@H](C(=O)NO)C3)cccc12
IC50: 50 to 1000 nM
//
query.smiles: O=C(O)CN1CCN(S(=O)(=O)c2cc(F)c(Oc3ccc(Cl)cc3)c(F)c2)[C@@H](C(=O)NO)C1
IC50: 50 to 1000 nM
//
query.smiles: O=C(NO)[C@H]1CN(C(=O)N2CCOCC2)CCN1S(=O)(=O)c1cc(F)c(Oc2ccc(Cl)cc2)c(F)c1
IC50: < 50 nM
//
query.smiles: CN1CCN(C(=O)NS(=O)(=O)N2CCN(S(=O)(=O)c3cc(F)c(Oc4ccc(Cl)cc4)c(F)c3)[C@@H](C(=O)NO)C2)CC1
IC50: < 50 nM

Attention now shifts to the item below.
Output measured IC50 for this item: "COCCOC(=O)N1CCN(S(=O)(=O)c2ccc(Oc3ccc(F)cc3)nc2)[C@@H](C(=O)NO)C1"
50 to 1000 nM
